The following molecules are listed with their measured EC50 values.
# testSystem: RNA-binding protein pos-1 (Caenorhabditis elegans, UniProt G5EF15)
# Sequence (G5EF15 whole entry, the tested form may be a part): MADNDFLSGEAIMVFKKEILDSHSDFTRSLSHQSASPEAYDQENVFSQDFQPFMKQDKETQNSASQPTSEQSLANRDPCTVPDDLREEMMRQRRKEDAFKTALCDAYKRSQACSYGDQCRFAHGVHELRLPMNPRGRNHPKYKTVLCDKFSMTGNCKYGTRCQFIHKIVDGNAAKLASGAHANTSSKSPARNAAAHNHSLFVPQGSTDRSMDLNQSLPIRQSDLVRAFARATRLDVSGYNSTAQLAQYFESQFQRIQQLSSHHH
# assayInfo: inhibitors of POS-1/mex-3 RNA binding, dose response, biochemical, fluorescence polarization (AID 1964);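 further: purified POS-1 fused to maltose binding protein made in E. coli; potency of compounds blocking POS-1 binding to fluorescent RNA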
The source made the active and inactive calls. No stated cut-off is given here; in the data, actives have a measured EC50 and inactives only a lower limit.
readoutLabel: EC50

>  <molecule>
COc1cccc(C2(O)CCN(CC(=O)Nc3nc(C)cs3)CC2)c1

>  <assayResult>
> 300 µM (not active)

$$$$
>  <molecule>
COc1ccc(NC(=O)c2sc3nc(-c4cccnc4)ccc3c2N)cc1OC

>  <assayResult>
115 µM (inconclusive)

$$$$
>  <molecule>
N#CC1=C(N)C(C#N)(C#N)C(c2cccnc2)C2CCCC=C12 (stereo unspecified)

>  <assayResult>
22.2 µM (active)

$$$$
>  <molecule>
Cc1onc(-c2c(F)cccc2Cl)c1C(=O)N1CCCc2ccccc21

>  <assayResult>
> 300 µM (not active)

$$$$
>  <molecule>
O=CN/N=C/c1c(O)ccc2ccccc12

>  <assayResult>
> 300 µM (not active)

$$$$
>  <molecule>
C/C(=N\C1CCCC1)c1c(C)[nH]n(-c2nc3ccccc3s2)c1=O

>  <assayResult>
> 300 µM (not active)

$$$$

====

# testSystem: Streptokinase A (Streptococcus pyogenes serotype M1, UniProt P10520)
# Sequence (P10520 whole entry): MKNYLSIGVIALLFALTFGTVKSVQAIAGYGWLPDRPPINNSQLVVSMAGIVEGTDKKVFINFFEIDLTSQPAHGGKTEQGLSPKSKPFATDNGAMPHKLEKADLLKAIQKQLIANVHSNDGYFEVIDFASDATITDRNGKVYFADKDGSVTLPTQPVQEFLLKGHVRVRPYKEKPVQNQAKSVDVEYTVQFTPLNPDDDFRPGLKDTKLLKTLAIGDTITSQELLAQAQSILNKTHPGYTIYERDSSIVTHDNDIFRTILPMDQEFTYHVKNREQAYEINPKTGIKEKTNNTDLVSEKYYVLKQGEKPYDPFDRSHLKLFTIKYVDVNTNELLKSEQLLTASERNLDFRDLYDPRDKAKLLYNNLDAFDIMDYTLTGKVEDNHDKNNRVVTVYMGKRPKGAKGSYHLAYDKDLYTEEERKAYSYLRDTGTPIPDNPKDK
# assayInfo: S. pyogenes streptokinase expression inhibitors, potency, dose response, plasminogen activation absorbance, OD405 (AID 1914);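 further: secreted streptokinase activity via plasminogen activation per viability signal from cell pellet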
# Type: functional, Streptococcus pyogenes M1 GAS
Active and inactive are the calls of the source. No stated cut-off is given here; in the data, actives have a measured EC50 and inactives only a lower limit.
readoutLabel: EC50

>  <compound>
CC(C)(C)c1ccc(CN(Cc2ccco2)Cc2nnnn2C2CCCC2)cc1

>  <testSystem>
Streptokinase A (Streptococcus pyogenes serotype M1, UniProt P10520)

>  <readoutLabel>
EC50

>  <assayResult>
12.7 µM (active)

$$$$
>  <compound>
CC(OC(=O)c1ccc(NC(=O)CC#N)cc1)C(=O)NC(=O)NC1CCCCC1 (configuration not stated)

>  <testSystem>
Streptokinase A (Streptococcus pyogenes serotype M1, UniProt P10520)

>  <readoutLabel>
EC50

>  <assayResult>
> 150 µM (not active)

$$$$
>  <compound>
OC(c1ccc(OCc2ccccc2)cc1)c1nnc(-c2ccccc2)o1 (configuration not stated)

>  <testSystem>
Streptokinase A (Streptococcus pyogenes serotype M1, UniProt P10520)

>  <readoutLabel>
EC50

>  <assayResult>
77.8 µM (active)

$$$$
>  <compound>
CC(C)Nc1cc(C(C)(C)C)nc2c(-c3ccccc3)cnn12

>  <testSystem>
Streptokinase A (Streptococcus pyogenes serotype M1, UniProt P10520)

>  <readoutLabel>
EC50

>  <assayResult>
13.6 µM (active)

$$$$
>  <compound>
COc1ccc(O)c(-c2cc(-c3cccc(Br)c3)[nH]n2)c1

>  <testSystem>
Streptokinase A (Streptococcus pyogenes serotype M1, UniProt P10520)

>  <readoutLabel>
EC50

>  <assayResult>
> 150 µM (inconclusive)

$$$$
>  <compound>
COc1ccc(C(=O)NCC(=O)OCCCOC(=O)CNC(=O)c2ccc(OC)c(OC)c2)cc1OC

>  <testSystem>
Streptokinase A (Streptococcus pyogenes serotype M1, UniProt P10520)

>  <readoutLabel>
EC50

>  <assayResult>
> 150 µM (not active)

$$$$
>  <compound>
Oc1cccc(/C=N/N(Cc2ccccc2)c2ccccc2)c1

>  <testSystem>
Streptokinase A (Streptococcus pyogenes serotype M1, UniProt P10520)

>  <readoutLabel>
EC50

>  <assayResult>
> 150 µM (not active)

$$$$
